assay: Selectivity index, ratio of IC50 for human A431 cells to MIC>99 for antimycobacterial activity against Mycobacterium kansasii CNCTC My 235/80 after 7 days; assay type: toxicity; settings: read-out: Selectivity Index
property_label: selectivity ratio at 168 h

**Query** Form field: reported selectivity ratio at 168 h of `O=[N+]([O-])c1cc(-c2nnc(SCc3ccccc3)n2Cc2ccccc2)cc(C(F)(F)F)c1`
**Result** > 100

* * *

Recorded MIC99, one value per entry.
tested on: Mycobacterium kansasii; experiment: Antimycobacterial activity against Mycobacterium kansasii CNCTC My 235/80 after 14 days; assay type: functional; conditions: CNCTC My 235/80, 336 h
Express the result in µM but write the number alone.

1) O=[N+]([O-])c1cc(-c2nnc(SCc3ccc(Br)cc3)n2Cc2ccccc2)cc(C(F)(F)F)c1    1

--- query ---
**Query** # lookup: MIC99 of `O=[N+]([O-])c1cc(CSc2nnc(-c3ccccc3)n2Cc2ccc(Br)cc2)cc([N+](=O)[O-])c1`
**Result** 4

* * *

system: Pichia kudriavzevii; assay: Antifungal activity against Candida krusei ATCC 6258 CCM8271 at highest concentration measured after 24 to 48 hrs by alamar blue dye based broth microdilution assay; format: functional, organism-based
The source made the active and inactive calls. The calls are words filed in the database; no cut-off is given here.
property_label: Activity

1. COc1ccc(CSc2nnc(-c3cc([N+](=O)[O-])cc(C(F)(F)F)c3)n2Cc2ccccc2)cc1    inactive
2. O=[N+]([O-])c1cc(-c2nnc(SCc3ccc(Cl)c(Cl)c3)n2Cc2ccccc2)cc([N+](=O)[O-])c1    inactive
3. CCCCCCCCSc1nnc(-c2cc([N+](=O)[O-])cc([N+](=O)[O-])c2)n1Cc1ccccc1    inactive
4. O=[N+]([O-])c1cc(-c2nnc(SCc3ccc(Cl)cc3)n2Cc2ccccc2)cc([N+](=O)[O-])c1    inactive

* * *

biological target: Decaprenylphosphoryl-beta-D-ribose oxidase (Mycobacterium smegmatis (strain ATCC 700084 / mc(2)155)); assay: Inhibition of DprE1 in Mycolicibacterium smegmatis MC2 155 lysate assessed as reduction in epimerization of P[14C]RPP to DP[14C]A at 700 uM measured after 1.5 hrs in presence of NADH by TLC-based autoradiography; type: subcellular
Activity calls are given as the source filed them. The rule behind the calls is not given here.
Respond with a class label; see YES (active), NO (inactive)

1. O=[N+]([O-])c1cc(-c2nnc(SCc3ccccc3)n2Cc2ccccc2)cc([N+](=O)[O-])c1    YES
2. O=[N+]([O-])c1cc(-c2nnc(SCc3ccccc3)n2Cc2ccccc2)cc(C(F)(F)F)c1    YES
3. COc1ccc(CSc2nnc(-c3cc([N+](=O)[O-])cc(C(F)(F)F)c3)n2Cc2ccccc2)cc1    YES

**Query** Could you please tell me the result logged for `CCCCCCn1c(SCc2cc([N+](=O)[O-])cc([N+](=O)[O-])c2)nnc1-c1ccccc1` in this assay?
**Result** NO

**Query** What classification did `COc1ccc(Cn2c(SCc3cc([N+](=O)[O-])cc([N+](=O)[O-])c3)nnc2-c2ccccc2)cc1` end up with in this test?
**Result** NO

**Query** Hello, I am checking results. What call was entered for `COc1ccc(CSc2nnc(-c3cc([N+](=O)[O-])cc([N+](=O)[O-])c3)n2Cc2ccccc2)cc1` ?
**Result** YES
